TARGET: T1, Anti-CD28 Fab (SEQ ID NOs: 696, 697)
T1 construct: In the phage ELISA the Fab was biotinylated and captured on neutravidin coated plates
T1 sequence (VH, as listed by the source, chain 1 of 2): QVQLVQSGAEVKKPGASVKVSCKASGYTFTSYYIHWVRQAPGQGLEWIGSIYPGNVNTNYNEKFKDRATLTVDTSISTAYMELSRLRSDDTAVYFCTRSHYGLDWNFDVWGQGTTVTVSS
T1 sequence (VL, as listed by the source, chain 2 of 2): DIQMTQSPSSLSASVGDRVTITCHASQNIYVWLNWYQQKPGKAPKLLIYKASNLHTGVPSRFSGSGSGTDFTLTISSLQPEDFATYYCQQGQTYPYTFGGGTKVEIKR
METHOD_NOTES: phage binding ELISA; clonal phage on plate-captured biotinylated anti-CD28 Fab, anti-M13 HRP detection
Entries and their Anti-CD28 Fab (SEQ ID NOs: 696, 697) signal
Reply briefly: the number, and no unit.

• SCAAGAMWPWPVCV [Phage-1522 (Peptide-92 library sequence, SEQ ID NO: 1818)] = 1.59

## Task Report Anti-CD28 Fab (SEQ ID NOs: 696, 697) signal for LCAAGFNYPWPLCL [Phage-1530 (Peptide-92 library sequence, SEQ ID NO: 1826)]
## Result 1.57

## Task Input SCAAGATFHWPMCF [Phage-1526 (Peptide-92 library sequence, SEQ ID NO: 1822)] , output reported Anti-CD28 Fab (SEQ ID NOs: 696, 697) signal.
## Result 1.57

## Task Annotate the binder LCAAGAAYPWPMCL [Phage-1520 (Peptide-92 library sequence, SEQ ID NO: 1816)] with its measured Anti-CD28 Fab (SEQ ID NOs: 696, 697) signal.
## Result 1.59

Source listed as patent US20260242478A1.
